- Assay Target: tissue plasminogen activator (t-PA) (Homo sapiens, UniProt P00750)
- Construct: purchased American Diagnostica, Greenwich, Conn
- Sequence (P00750 36-562): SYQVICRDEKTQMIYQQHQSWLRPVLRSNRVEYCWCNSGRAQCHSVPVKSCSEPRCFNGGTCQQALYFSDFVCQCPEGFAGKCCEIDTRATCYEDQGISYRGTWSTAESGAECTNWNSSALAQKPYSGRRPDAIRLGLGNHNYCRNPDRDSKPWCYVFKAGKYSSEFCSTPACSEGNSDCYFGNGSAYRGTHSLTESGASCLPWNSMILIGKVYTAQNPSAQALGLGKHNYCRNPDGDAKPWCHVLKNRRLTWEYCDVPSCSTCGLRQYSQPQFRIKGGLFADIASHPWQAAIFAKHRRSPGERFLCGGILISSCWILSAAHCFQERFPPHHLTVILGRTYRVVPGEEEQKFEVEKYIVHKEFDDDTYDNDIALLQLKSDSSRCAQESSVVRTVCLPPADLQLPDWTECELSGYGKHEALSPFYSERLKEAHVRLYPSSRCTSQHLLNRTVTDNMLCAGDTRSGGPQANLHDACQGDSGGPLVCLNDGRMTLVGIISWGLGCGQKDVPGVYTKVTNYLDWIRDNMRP
- Assay Procedure: Serine protease inhibition (Kass), t-PA
- Format: biochemical
Non-standard residues stand in square brackets, D forms with d. Residues, ends and D or L forms follow the SMILES beside them. dNMeCha = CN[C@H](CC1CCCCC1)C(=O)O
Assay Readout: Kass t-PA (L/mol × 10^6)
Give the value in L/mol × 10^6 but do not write L/mol × 10^6 after it.

# annotated cases, reported Kass t-PA shown
| Compound | Kass t-PA [L/mol × 10^6] |
| --- | --- |
| CN[C@H](CC1CCCCC1)C(=O)N1CCC[C@H]1C(=O)N[C@H](C=O)CCCNC(=N)N.Cl [Example 75] (H-[dNMeCha]-Pro-Arg-aldehyde) | 0.37 |
| CCCCC(Cc1ccccc1)(NC(=O)OCC)C(=O)N1CCC[C@H]1C(=O)N[C@H](C=O)CCCNC(=N)N (stereo partly shown) | 0.001 |
| CCS(=O)(=O)N[C@H](Cc1ccccc1)C(=O)N1CCC[C@@]1(C)C(=O)N[C@H](C=O)CCCNC(=N)N.Cl | 0.051 |
| C[C@@]1(C(=O)N[C@H](C=O)CCCNC(=N)N)CCCN1C(=O)[C@@H](Cc1ccccc1)NS(C)(=O)=O.Cl | 0.027 |
| CCCCC(CCCC)(NC(=O)OCC)C(=O)N1CCC[C@H]1C(=O)N[C@H](C=O)CCCNC(=N)N.Cl | 0.010 |
| CN[C@@H](C(=O)N1CCC[C@H]1C(=O)N[C@@H](CCCNC(=N)N)C(O)S(=O)(=O)[O-])c1ccccc1.O=S(=O)(O)O.[Na+] (stereo partly shown) | 0.01 |
| Cl.N=C(N)NCCC[C@@H](C=O)NC(=O)[C@@H]1CCCN1C(=O)[C@@H](Cc1ccccc1)NS(=O)(=O)c1ccccc1 | 2.3 |
| N=C(N)NCCC[C@H](NC(=O)[C@@H]1CCCN1C(=O)C1CC2CCCCC2CN1)C(O)S(=O)(=O)[O-].O=S(=O)(O)O.[Na+] (stereo partly shown) | 0.01 |
| Cl.Cn1c(C(=O)NC2(C(=O)N3CCC[C@H]3C(=O)N[C@H](C=O)CCCNC(=N)N)CCCCC2)cc2ccccc21 | 0.0011 |
| CCS(=O)(=O)N[C@@H](C(=O)N1CCC[C@H]1C(=O)N[C@H](C=O)CCCNC(=N)N)C1CCCCC1.Cl | 0.11 |

Q. Param readout= Kass t-PA; system= tissue plasminogen activator (t-PA) (Homo sapiens, UniProt P00750); entry= `CCOC(=O)N[C@@H](Cc1ccccc1)C(=O)N1CCC[C@@]1(C)C(=O)N[C@H](C=O)CCCNC(=N)N.Cl` ; returns value.
A. 0.00072

Q. Now consider `CC(C)S(=O)(=O)N[C@H](Cc1ccccc1)C(=O)N1CCC[C@H]1C(=O)N[C@H](C=O)CCCNC(=N)N.Cl` .
A. 3.5

Q. Please answer likewise for `Cl.Cn1c(C(=O)N[C@H](CC2CCCCC2)C(=O)N2CCC[C@H]2C(=O)N[C@H](C=O)CCCNC(=N)N)cc2ccccc21`
A. 1.1
